# Test system: SYO-1 tumor spheroids, viability % test/control
# Assay Name: Anticancer human tumor SYO-1 cell line growth inhibition
# Experimental Context: second compound 0.003 µM; first compound 0.3 µM; hits give low values; spheroids with HUVEC and MSC
Listed molecules paired with reported viability, T/C

[
  {
    "Molecule": "Cn1ncnc1[C@H]1c2n[nH]c(=O)c3cc(F)cc(c23)N[C@@H]1c1ccc(F)cc1 + CC[C@@]1(O)C(=O)OCc2c1cc1n(c2=O)Cc2cc3c(CN(C)C)c(O)ccc3nc2-1",
    "viability, T/C (%)": 1.63
  },
  {
    "Molecule": "Cc1sc2c(c1C)C(c1ccc(Cl)cc1)=NC(CC(=O)Nc1ccc(O)cc1)c1nnc(C)n1-2 (centres undefined) + COc1cc2c(cc1O)CCNC21CSC2c3c(OC(C)=O)c(C)c4c(c3C(COC1=O)N1C(O)C3Cc5cc(C)c(OC)c(O)c5C(C21)N3C)OCO4",
    "viability, T/C (%)": 0.1
  },
  {
    "Molecule": "Cn1ncnc1[C@H]1c2n[nH]c(=O)c3cc(F)cc(c23)N[C@@H]1c1ccc(F)cc1 + COc1cc2c(cc1O)CCNC21CSC2c3c(OC(C)=O)c(C)c4c(c3C(COC1=O)N1C(O)C3Cc5cc(C)c(OC)c(O)c5C(C21)N3C)OCO4",
    "viability, T/C (%)": 0.14
  },
  {
    "Molecule": "CNCc1ccc(-c2cc(-c3nc(-c4ccc(S(=O)(=O)C(C)C)cc4)cnc3N)on2)cc1 + COc1cc2c(cc1O)CCNC21CSC2c3c(OC(C)=O)c(C)c4c(c3C(COC1=O)N1C(O)C3Cc5cc(C)c(OC)c(O)c5C(C21)N3C)OCO4",
    "viability, T/C (%)": 0.11
  }
]

----------
# Test system: SYO-1 tumor spheroids, viability % test/control
# Assay Name: Anticancer human tumor SYO-1 cell line growth inhibition;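 also: spheroids exposed to agents for 7 days before viability read; 100% = DMSO vehicle control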
# Experimental Context: second compound 0.0949 µM; first compound 1 µM; hits give low values; spheroids with HUVEC and MSC
Measure Name: viability, T/C (%)

[
  {
    "Compound": "CC1COCCN1c1cc(-c2ccnn2C)c2ccnc(-c3ccn[nH]3)c2n1 (stereo not drawn) + CC[C@@]1(O)C(=O)OCc2c1cc1n(c2=O)Cc2cc3c(CN(C)C)c(O)ccc3nc2-1",
    "Unit Abbreviation": "%",
    "Data Value": 0.68
  },
  {
    "Compound": "COc1ccc([C@@H](O)c2cc(-c3ncnc4cc(N5CCOCC5)ccc34)c(F)cc2Cl)nn1 + CC[C@@]1(O)C(=O)OCc2c1cc1n(c2=O)Cc2cc3c(CN(C)C)c(O)ccc3nc2-1",
    "Unit Abbreviation": "%",
    "Data Value": 1.01
  },
  {
    "Compound": "CC(C)n1c(=O)n(C)c2cnc3cc(F)c(-c4ccc(OCCCN5CCCCC5)nc4)cc3c21 + CC[C@@]1(O)C(=O)OCc2c1cc1n(c2=O)Cc2cc3c(CN(C)C)c(O)ccc3nc2-1",
    "Unit Abbreviation": "%",
    "Data Value": 1.34
  }
]

----------
Quick list: viability, T/C per entry.
# Test system: SYO-1 tumor spheroids, viability % test/control
# Assay Name: Anticancer human tumor SYO-1 cell line growth inhibition;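 also: spheroids exposed to agents for 7 days before viability read; 100% = DMSO vehicle control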
# Experimental Context: second compound 0.00949 µM; first compound 1 µM; hits give low values; spheroids with HUVEC and MSC
Measure Name: viability, T/C (%)

[
  {
    "Compound": "[2H]c1nc(C)nc([2H])c1-c1cc(NC[C@@H](C)c2cccc3c(C(=O)NC)ccnc23)ncn1 + CC[C@@]1(O)C(=O)OCc2c1cc1n(c2=O)Cc2cc3c(CN(C)C)c(O)ccc3nc2-1",
    "Test System": "SYO-1 tumor spheroids, viability % test/control",
    "Data Value": 20
  },
  {
    "Compound": "COc1ccc([C@@H](O)c2cc(-c3ncnc4cc(N5CCOCC5)ccc34)c(F)cc2Cl)nn1 + CC[C@@]1(O)C(=O)OCc2c1cc1n(c2=O)Cc2cc3c(CN(C)C)c(O)ccc3nc2-1",
    "Test System": "SYO-1 tumor spheroids, viability % test/control",
    "Data Value": 17.1
  },
  {
    "Compound": "Cc1cc(C)c(CNC(=O)c2cc(-c3ccc(CN4CCOCC4)cc3)cc3c2cnn3C2CCCC2)c(=O)[nH]1 + CC[C@@]1(O)C(=O)OCc2c1cc1n(c2=O)Cc2cc3c(CN(C)C)c(O)ccc3nc2-1",
    "Test System": "SYO-1 tumor spheroids, viability % test/control",
    "Data Value": 12.5
  },
  {
    "Compound": "CC1COCCN1c1cc(-c2ccnn2C)c2ccnc(-c3ccn[nH]3)c2n1 (stereo unspecified) + CC[C@@]1(O)C(=O)OCc2c1cc1n(c2=O)Cc2cc3c(CN(C)C)c(O)ccc3nc2-1",
    "Test System": "SYO-1 tumor spheroids, viability % test/control",
    "Data Value": 0.94
  },
  {
    "Compound": "COc1cc(C)[nH]c(=O)c1CN1CCc2c(Cl)cc(C(OC)C3COC3)c(Cl)c2C1=O (stereo unspecified) + CC[C@@]1(O)C(=O)OCc2c1cc1n(c2=O)Cc2cc3c(CN(C)C)c(O)ccc3nc2-1",
    "Test System": "SYO-1 tumor spheroids, viability % test/control",
    "Data Value": 5.82
  },
  {
    "Compound": "CC(C)n1c(=O)n(C)c2cnc3cc(F)c(-c4ccc(OCCCN5CCCCC5)nc4)cc3c21 + CC[C@@]1(O)C(=O)OCc2c1cc1n(c2=O)Cc2cc3c(CN(C)C)c(O)ccc3nc2-1",
    "Test System": "SYO-1 tumor spheroids, viability % test/control",
    "Data Value": 2.56
  }
]

----------
# Test system: SYO-1 tumor spheroids, viability % test/control
# Assay Name: Anticancer human tumor SYO-1 cell line growth inhibition;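 also: spheroids exposed to agents for 7 days before viability read; 100% = DMSO vehicle control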
# Experimental Context: second compound 0.0949 µM; first compound 3.16 µM; hits give low values; spheroids with HUVEC and MSC
Measured viability, T/C values are reported for all entries that follow.
Measure Name: viability, T/C

[
  {
    "Compound": "Cc1cc(C)c(CNC(=O)c2cc(-c3ccc(CN4CCOCC4)cc3)cc3c2cnn3C2CCCC2)c(=O)[nH]1 + CC[C@@]1(O)C(=O)OCc2c1cc1n(c2=O)Cc2cc3c(CN(C)C)c(O)ccc3nc2-1",
    "Test System": "SYO-1 tumor spheroids, viability % test/control",
    "Data Value": "2.19%"
  },
  {
    "Compound": "CC1COCCN1c1cc(-c2ccnn2C)c2ccnc(-c3ccn[nH]3)c2n1 (stereo not drawn) + CC[C@@]1(O)C(=O)OCc2c1cc1n(c2=O)Cc2cc3c(CN(C)C)c(O)ccc3nc2-1",
    "Test System": "SYO-1 tumor spheroids, viability % test/control",
    "Data Value": "0.44%"
  },
  {
    "Compound": "COc1ccc([C@@H](O)c2cc(-c3ncnc4cc(N5CCOCC5)ccc34)c(F)cc2Cl)nn1 + CC[C@@]1(O)C(=O)OCc2c1cc1n(c2=O)Cc2cc3c(CN(C)C)c(O)ccc3nc2-1",
    "Test System": "SYO-1 tumor spheroids, viability % test/control",
    "Data Value": "0.75%"
  }
]

----------
# Test system: SYO-1 tumor spheroids, viability % test/control
# Assay Name: Anticancer human tumor SYO-1 cell line growth inhibition; active = viability on the fitted dose curve at most 10% of control; inactive = the rest;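 also: spheroids exposed to agents for 7 days before viability read; 100% = DMSO vehicle control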
# Experimental Context: second compound 0.003 µM; first compound 0.3 µM; spheroids with HUVEC and MSC
Possible outcomes: 1 (active), 0 (inactive)

[
  {
    "Molecule": "O=C(c1cc(Cc2n[nH]c(=O)c3ccccc23)ccc1F)N1CCN(C(=O)C2CC2)CC1 + COc1cc2c(cc1O)CCNC21CSC2c3c(OC(C)=O)c(C)c4c(c3C(COC1=O)N1C(O)C3Cc5cc(C)c(OC)c(O)c5C(C21)N3C)OCO4",
    "Label Value": 1
  },
  {
    "Molecule": "Cc1sc2c(c1C)C(c1ccc(Cl)cc1)=NC(CC(=O)Nc1ccc(O)cc1)c1nnc(C)n1-2 (centres undefined) + CC[C@@]1(O)C(=O)OCc2c1cc1n(c2=O)Cc2cc3c(CN(C)C)c(O)ccc3nc2-1",
    "Label Value": 1
  },
  {
    "Molecule": "O=C(c1cc(Cc2n[nH]c(=O)c3ccccc23)ccc1F)N1CCN(C(=O)C2CC2)CC1 + CC[C@@]1(O)C(=O)OCc2c1cc1n(c2=O)Cc2cc3c(CN(C)C)c(O)ccc3nc2-1",
    "Label Value": 0
  },
  {
    "Molecule": "CNCc1ccc(-c2cc(-c3nc(-c4ccc(S(=O)(=O)C(C)C)cc4)cnc3N)on2)cc1 + CC[C@@]1(O)C(=O)OCc2c1cc1n(c2=O)Cc2cc3c(CN(C)C)c(O)ccc3nc2-1",
    "Label Value": 1
  }
]
